Origin of the recorded values: patent US20120172293A1

- measurement-target: T1, human Y2 receptor (human, UniProt P49146 1-381)
- T1 construct: whole, on cells; used as membrane fraction of hY2R/CHO cells; also called human NPY2R; hY2R
- T1 sequence (looked up): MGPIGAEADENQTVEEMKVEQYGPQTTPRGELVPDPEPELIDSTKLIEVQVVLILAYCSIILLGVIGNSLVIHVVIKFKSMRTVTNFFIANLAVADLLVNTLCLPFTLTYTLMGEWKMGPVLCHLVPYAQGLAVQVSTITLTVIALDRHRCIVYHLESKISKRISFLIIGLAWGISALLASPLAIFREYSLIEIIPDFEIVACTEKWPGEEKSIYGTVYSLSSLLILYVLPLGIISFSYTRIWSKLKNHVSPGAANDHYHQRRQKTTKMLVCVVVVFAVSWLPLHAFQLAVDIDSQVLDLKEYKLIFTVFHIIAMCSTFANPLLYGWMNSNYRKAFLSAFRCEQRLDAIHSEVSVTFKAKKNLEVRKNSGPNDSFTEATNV
- assay-details: RBA: [125I]-PYY displacement, hY2R/CHO membranes
Non-standard residues stand in square brackets, D forms with d. Cha = N[C@@H](CC1CCCCC1)C(=O)O; Aib = CC(C)(N)C(=O)O
measure: IC50 Ratio (vs PYY(3-36)) (ratio)
Return type: number; implicit unit ratio.

[in] Note IC50 Ratio (vs PYY(3-36)) for the binder shown: Ac-[dT][dP]RH[Cha][Cha]NL[Aib]TRQR[Cha]-NH2 (SMILES CC(=O)N[C@@H](C(=O)N1CCC[C@@H]1C(=O)N[C@@H](CCCNC(=N)N)C(=O)N[C@@H](Cc1c[nH]cn1)C(=O)N[C@@H](CC1CCCCC1)C(=O)N[C@@H](CC1CCCCC1)C(=O)N[C@@H](CC(N)=O)C(=O)N[C@@H](CC(C)C)C(=O)NC(C)(C)C(=O)N[C@H](C(=O)N[C@@H](CCCNC(=N)N)C(=O)N[C@@H](CCC(N)=O)C(=O)N[C@@H](CCCNC(=N)N)C(=O)N[C@@H](CC1CCCCC1)C(N)=O)[C@@H](C)O)[C@H](C)O, also called compound No. 158) [Ac-[D-Thr23, D-Pro24, Cha27,28,36, Aib31]-PYY(23-36)]
[out] 7.1
